Measured TGI values are reported for all entries that follow.
system: T-47D breast; assay: NCI tumour cell line growth inhibition, 48 h
valueKind: TGI

1. CCOP(=O)(OCC)C(C(=O)OC)C(=O)C(=O)Nc1cccc(O)c1 (centres undefined): > 100 µM
2. CC(=O)NNc1nc(C)c(C(/C=C/c2ccccc2O)=N/N=C(N)N)s1: > 100 µM
3. Cc1cc2c(-c3nc4ccccn4c3N)c(O)c(O)cc2c(O)c1-c1c(C)cc2c(-c3nc4ccccn4c3N)c(O)c(O)cc2c1O: > 25 µM
4. C/C=C1/CC(C)C(C)(O)C(=O)OCC2C(O)CN3CCC(OC1=O)C23 (centres undefined): > 100 µM

Values compiled from PubChem BioAssay (NCI).
